Test system: PC49
Test: qHTS profiling for inhibitors of Plasmodium falciparum proliferation (AID 504749); also: nearly all actives have a fitted effect of over 60% in size; also: potency is read from the fitted curve at half-maximal effect
Details: P. falciparum in erythrocytes, SYBR Green DNA, 72 h; series mostly up to 28.7 µM
Inconclusive results are not listed. Active and inactive are the calls of the source. Calls follow the shape of the dose curve; as a rule, active = well fitted inhibition curve with a large enough effect; inconclusive = small, poorly fitted or top-dose-only effect; inactive = flat fitted curve, though single readings scatter.
propertyMeasured: Potency

# annotated cases, reported Potency shown
[
  {
    "compound": "C=C1[C@@H]2CC[C@H](C2)C1(C)C",
    "Potency": "inactive"
  },
  {
    "compound": "C=C[C@H]1CN2CCC1C[C@H]2[C@H](O)c1ccnc2ccc(OC)cc12 (some centres not stated)",
    "Potency": "1260 nM (active)"
  },
  {
    "compound": "C=C(CC[C@@H](C)[C@H]1CCC2[C@]1(C)CC[C@]13C[C@@]14CCC(OC(=O)/C=C/c1ccc(O)c(OC)c1)C(C)(C)[C@@H]4CC[C@@]23C)C(C)C (some centres not stated)",
    "Potency": "inactive"
  },
  {
    "compound": "CC1=C[C@@H](O)CC(C)(C)[C@@H]1/C=C/C(C)=C/C=C/C(C)=C/C=C/C=C(C)/C=C/C=C(C)/C=C/C1=C(C)C[C@H](O)CC1(C)C",
    "Potency": "10000 nM (active)"
  },
  {
    "compound": "O=[N+]([O-])O[C@H]1CO[C@H]2[C@@H]1OC[C@H]2O",
    "Potency": "inactive"
  },
  {
    "compound": "COc1ccc(S(=O)(=O)N2c3ccc(Cl)cc3[C@](O)(c3ccccc3Cl)[C@@H]2C(=O)N2CCC[C@H]2C(N)=O)cc1OC",
    "Potency": "inactive"
  },
  {
    "compound": "CO/N=C(/C(=O)N[C@@H]1C(=O)N2C(C(=O)O)=C(CSC(=O)c3ccco3)CSC12)c1csc(N)n1 (some centres not stated)",
    "Potency": "inactive"
  },
  {
    "compound": "Cn1cc(C(=O)[C@@H]2CCc3[nH]cnc3C2)c2ccccc21",
    "Potency": "inactive"
  }
]

Potency lookup needed for O=C(O)C(O)c1ccccc1 (configuration not stated) , thanks.
inactive

What value of Potency has been recorded for this entry: O=C(O)C[CH2][Ge](=[O])[O][Ge](=[O])[CH2]CC(=O)O
inactive

Param item = COC(=O)C1[C@@H](OC)C(OC(=O)COc2ccc(OC)cc2)C[C@@H]2CN3CCc4c([nH]c5cc(OC)ccc45)[C@H]3C[C@H]12 (some centres not stated) ; retrieve measured Potency.
inactive

Look up Potency: CO/N=C(/C(=O)N[C@@H]1C(=O)N2C(C(=O)O)=C(C[n+]3ccc(N)n3CCO)CS[C@H]12)c1csc(N)n1
inactive

Using the record for CC[C@]1([C@H]2O[C@@H]([C@@H]3O[C@](O)(CO)[C@@H](C)C[C@H]3C)C[C@H]2C)CC[C@@H]([C@]2(C)CC[C@@]3(C[C@@H](O)[C@@H](C)[C@@H]([C@H](C)[C@H](OC)[C@H](C)C(=O)O)O3)O2)O1 , report its Potency.
70.8 nM (active)

Could you tell me which Potency is on file for CC(O)C(N)C(=O)O (configuration not stated) ?
inactive

Report Potency for CCC(C(=O)C(C)C(O)C(C)CCc1ccc(C)c(O)c1C(=O)O)C1OC(CC)(C2CC[C@@](O)(CC)C(C)O2)CC1C (some centres not stated) please.
2000 nM (active)

GET /values?readout=Potency&item= CCCSS/C(CCO)=C(/C)N(C=O)Cc1cnc(C)nc1N
inactive

Which Potency is listed for C=CC1CN2CCC1CC2[C@@H](O)c1ccnc2ccc(OC)cc12 (some centres not stated) ?
282 nM (active)

Source listed as PubChem BioAssay (NCATS).
